Measured values drawn from patent US7671061B2 for this set.

Listing: IC50 of selected compounds
Molecular target: hTRPA1 (Homo sapiens, UniProt O75762, K186N)
Construct: expressed in transfected cells; host or cells: HEK293/TREx (Invitrogen), induced with tetracycline
Sequence (O75762 whole entry K186N): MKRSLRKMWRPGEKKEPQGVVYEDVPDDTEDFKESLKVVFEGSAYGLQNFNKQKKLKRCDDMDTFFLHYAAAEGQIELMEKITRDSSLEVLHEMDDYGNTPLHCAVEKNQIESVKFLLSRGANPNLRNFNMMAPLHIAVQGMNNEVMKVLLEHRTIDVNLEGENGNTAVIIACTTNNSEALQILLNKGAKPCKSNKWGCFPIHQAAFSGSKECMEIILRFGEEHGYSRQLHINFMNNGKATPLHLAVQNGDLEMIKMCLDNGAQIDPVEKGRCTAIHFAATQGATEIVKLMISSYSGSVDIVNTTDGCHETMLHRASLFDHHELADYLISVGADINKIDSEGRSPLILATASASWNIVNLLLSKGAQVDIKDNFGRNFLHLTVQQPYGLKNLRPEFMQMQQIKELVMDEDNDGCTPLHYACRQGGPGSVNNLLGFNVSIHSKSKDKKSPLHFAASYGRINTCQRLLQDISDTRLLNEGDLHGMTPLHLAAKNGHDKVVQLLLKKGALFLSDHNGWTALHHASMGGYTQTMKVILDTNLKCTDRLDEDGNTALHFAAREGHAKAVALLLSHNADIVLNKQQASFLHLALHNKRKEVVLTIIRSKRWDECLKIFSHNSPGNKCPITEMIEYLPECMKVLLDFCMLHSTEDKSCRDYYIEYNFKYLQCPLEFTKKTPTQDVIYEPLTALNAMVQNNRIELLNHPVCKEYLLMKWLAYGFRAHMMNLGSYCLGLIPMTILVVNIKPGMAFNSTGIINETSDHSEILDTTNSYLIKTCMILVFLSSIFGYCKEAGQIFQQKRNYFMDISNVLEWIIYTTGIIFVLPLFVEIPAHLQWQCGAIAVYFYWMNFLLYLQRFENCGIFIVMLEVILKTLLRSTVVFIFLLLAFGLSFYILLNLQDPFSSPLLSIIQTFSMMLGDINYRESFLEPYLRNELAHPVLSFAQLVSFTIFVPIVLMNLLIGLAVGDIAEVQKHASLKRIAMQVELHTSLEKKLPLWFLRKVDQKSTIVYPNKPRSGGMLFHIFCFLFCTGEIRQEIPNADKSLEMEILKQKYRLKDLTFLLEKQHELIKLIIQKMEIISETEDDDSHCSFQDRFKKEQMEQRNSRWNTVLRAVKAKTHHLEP
Test: TRPA1 patch clamp (perforated patch, AITC-activated current)
Assay type: cell-based
Conditions: Table 1; read-out: hTRPA1 Patch IC50

>>> measured("CCOC(=O)C1=C(c2ccccc2)NC(=S)NC1c1cc(O)ccc1Br (stereo not drawn) [drawing 264]")
"≤ 1 µM"

Please look up its IC50: COC(=O)C1=C(c2ccccc2)NC(=S)NC1c1ccccc1 (stereo not drawn)
≤ 5 µM

Please look up its IC50: COC(=O)C1=C(C)N(C)C(=O)NC1c1ccc(O)c(Cl)c1 (stereo not drawn)
> 10 µM

Please look up its IC50: C=CCOc1cccc(C2NC(=S)NC(C)=C2C(=O)OCC)c1 (stereo not drawn)
≤ 1 µM

Please look up its IC50: COC(=O)C1=C(C)N(C)C(=O)NC1c1ccc(F)c(F)c1 (stereo not drawn)
≤ 1 µM

Please look up its IC50: COC(=O)C1=C(C)NC(=S)NC1c1cc(C)ccc1C (stereo not drawn)
≤ 5 µM

Please look up its IC50: COC(=O)C1=C(C)NC(=S)NC1c1ccc(OC)c(Br)c1 (stereo not drawn)
≤ 1 µM

Please look up its IC50: CCOC(=O)C1=C(c2ccccc2)NC(=S)NC1c1cc(O)ccc1Br (stereo not drawn) [drawing 265]
≤ 0.5 µM

Please look up its IC50: COC(=O)C1=C(C)NC(=S)NC1c1c(Cl)cccc1Cl (stereo not drawn)
≤ 1 µM

----------
Biological target: hTRPA1 (Homo sapiens, UniProt O75762, K186N)
Construct: expressed in transfected cells; host or cells: HEK293/TREx (Invitrogen), induced with tetracycline
Experiment: High throughput Ca2+ fluorescence (Fluo4) assay, AITC stimulation
Assay type: cell-based
Conditions: Table 2; read-out: hTRPA1 Fluor IC50
Excerpt: The assay depended on detection of the rise in intracellular Ca^2+ concentration ([Ca^2+]i) following channel activation in cells inducibly expressing the TRPA1 channel. Ca^2+ rise was quantified with the use of fluorescent Ca^2+ indicators that were loaded into cells and thereafter indicated the [Ca^2+]i. Ca^2+ influx followed activation of the TRPA1 channel. Compounds inhibiting the [Ca^2+]i rise were considered hits for further investigation. […]
Listing: IC50 of selected compounds

Study these solved cases before continuing.
>>> measured("Cn1c(=O)c2c(ncn2CC(=O)Nc2ccccc2SCc2ccccc2)n(C)c1=O [Compound 351]")
"> 10 µM"
>>> measured("CCCCc1ccc2nc(NC(=O)Cn3cnc4c3c(=O)n(C)c(=O)n4C)sc2c1 [Compound 269]")
"≤ 5 µM"
>>> measured("Cn1c(=O)c2c(ncn2CC(=O)Nc2ccc3c(c2)OC2(CCCCC2)O3)n(C)c1=O [Compound 347]")
"≤ 1 µM"
>>> measured("CC(NC(=O)Cn1cnc2c1c(=O)n(C)c(=O)n2C)c1ccc(-n2ccnc2)cc1 (centres unmarked) [Compound 325]")
"≥ 20 µM"
>>> measured("Cn1c(=O)c2c(ncn2CC(=O)NCc2cccc(Cl)c2)n(C)c1=O [Compound 286]")
"> 10 µM"

Please look up its IC50: Cn1c(=O)c2c(ncn2CC(=O)NC2CCCC2)n(C)c1=O [Compound 218]
> 10 µM

Please look up its IC50: CCOC(=O)c1ccccc1NC(=O)Cn1cnc2c1c(=O)n(C)c(=O)n2C [Compound 362]
> 10 µM

Please look up its IC50: COc1ccc(CNC(=O)Cn2cnc3c2c(=O)n(C)c(=O)n3C)cc1 [Compound 364]
> 10 µM

----------
Listing: IC50 of selected compounds
Biological target: hERG (Homo sapiens)
Sequence (Q12809 whole entry): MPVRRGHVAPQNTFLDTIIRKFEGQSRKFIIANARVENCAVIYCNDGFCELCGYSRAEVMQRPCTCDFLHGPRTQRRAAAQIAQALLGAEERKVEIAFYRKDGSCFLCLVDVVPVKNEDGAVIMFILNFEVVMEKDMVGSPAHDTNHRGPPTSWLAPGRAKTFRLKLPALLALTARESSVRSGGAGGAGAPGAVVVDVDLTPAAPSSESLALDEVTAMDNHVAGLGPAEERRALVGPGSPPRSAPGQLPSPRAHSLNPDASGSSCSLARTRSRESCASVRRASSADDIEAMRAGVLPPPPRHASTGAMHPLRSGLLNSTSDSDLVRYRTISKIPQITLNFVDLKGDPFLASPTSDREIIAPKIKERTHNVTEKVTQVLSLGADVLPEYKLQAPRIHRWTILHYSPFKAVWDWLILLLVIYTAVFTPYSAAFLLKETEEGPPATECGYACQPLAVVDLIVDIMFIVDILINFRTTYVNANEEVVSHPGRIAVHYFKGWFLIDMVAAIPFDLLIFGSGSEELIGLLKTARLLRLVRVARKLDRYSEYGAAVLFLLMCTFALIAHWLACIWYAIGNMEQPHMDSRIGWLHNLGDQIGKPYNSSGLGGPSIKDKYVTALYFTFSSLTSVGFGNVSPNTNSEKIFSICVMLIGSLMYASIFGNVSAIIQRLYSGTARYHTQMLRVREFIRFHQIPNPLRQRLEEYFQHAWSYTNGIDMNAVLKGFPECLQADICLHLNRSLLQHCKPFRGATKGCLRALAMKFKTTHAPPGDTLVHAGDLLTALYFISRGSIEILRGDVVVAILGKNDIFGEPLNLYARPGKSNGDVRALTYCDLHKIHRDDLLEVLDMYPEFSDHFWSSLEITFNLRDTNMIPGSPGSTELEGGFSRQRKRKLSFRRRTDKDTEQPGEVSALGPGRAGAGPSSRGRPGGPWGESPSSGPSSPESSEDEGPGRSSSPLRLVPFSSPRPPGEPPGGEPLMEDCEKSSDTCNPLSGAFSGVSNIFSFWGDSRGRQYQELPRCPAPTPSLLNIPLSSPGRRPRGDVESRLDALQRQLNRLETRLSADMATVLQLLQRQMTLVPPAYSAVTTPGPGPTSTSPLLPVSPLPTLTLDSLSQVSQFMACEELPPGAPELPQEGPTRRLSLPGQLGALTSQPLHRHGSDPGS
Assay: hERG patch clamp (Qpatch) selectivity
Details: hERG Qpatch IC50 (nM), Table 1

Study these solved cases before continuing.
>>> measured("CCOC(=O)C1=C(c2ccccc2)NC(=S)NC1c1ccccc1Br (stereo not drawn)")
"> 10000 nM"
>>> measured("CCOC(=O)C1=C(c2ccccc2)NC(=S)NC1c1ccccc1Cl (stereo not drawn)")
"≥ 20000 nM"

Continue with the next compound.
Please look up its IC50: CCOC(=O)C1=C(c2ccccc2)NC(=S)NC1c1cc(O)ccc1Br (stereo not drawn) [drawing 49]
≥ 20000 nM

----------
Biological target: hTRPA1 (Homo sapiens, UniProt O75762, K186N)
Construct: expressed in transfected cells; host or cells: HEK293/TREx (Invitrogen), induced with tetracycline
Assay: TRPA1 patch clamp (perforated patch, AITC-activated current)
Assay type: cell-based
Settings: Table 2; inward current; read-out: hTRPA1 Patch Inwd IC50
Listing: IC50 of selected compounds

Study these solved cases before continuing.
>>> measured("Cn1c(=O)c2c(ncn2CC(=O)NCC(C)(c2ccccc2)c2ccccc2)n(C)c1=O [Compound 348]")
"> 10 µM"
>>> measured("CC(C)c1ccc(NC(=O)C(C)(C)n2cnc3c2c(=O)n(C)c(=O)n3C)cc1 [Compound 387]")
"> 10 µM"
>>> measured("Cn1c(=O)c2c(ncn2CC(=O)NCc2ccccc2Cl)n(C)c1=O [Compound 236]")
"> 10 µM"

Continue with the next compound.
Please look up its IC50: Cn1c(=O)c2c(ncn2CC(=O)NCCc2ccc(Cl)c(Cl)c2)n(C)c1=O [Compound 396]
≤ 1 µM

----------
Biological target: hTRPA1 (Homo sapiens, UniProt O75762, K186N)
Construct: expressed in transfected cells; host or cells: HEK293/TREx (Invitrogen), induced with tetracycline
Assay: High throughput Ca2+ fluorescence (Fluo4) assay, AITC stimulation
Format: cell-based
Conditions: Table 2; read-out: hTRPA1 Fluor IC50
Property: IC50

Study these solved cases before continuing.
>>> measured("Cn1c(=O)c2c(ncn2CC(=O)NCC(c2cccs2)N2CCCC2)n(C)c1=O (centres unmarked)")
"> 10 µM"
>>> measured("CC(C(=O)Nc1ccc(Br)cc1)n1cnc2c1c(=O)n(C)c(=O)n2C (centres unmarked)")
"≤ 5 µM"
>>> measured("Cn1c(=O)c2c(ncn2CC(=O)Nc2ccc(Br)cc2)n(C)c1=O [Compound 202]")
"≤ 5 µM"
>>> measured("Cn1c(=O)c2c(ncn2CC(=O)Nc2ccccc2C(=O)NC2CC2)n(C)c1=O")
"> 10 µM"
>>> measured("Cn1c(=O)c2c(ncn2CC(=O)Nc2ccc(F)c(Cl)c2)n(C)c1=O")
"≤ 5 µM"
>>> measured("Cn1c(=O)c2c(ncn2CC(=O)Nc2cc(F)cc(F)c2)n(C)c1=O")
"≤ 5 µM"
>>> measured("Cn1c(=O)c2c(ncn2CC(=O)Nc2ccc(Cl)c(Cl)c2)n(C)c1=O")
"≤ 10 µM"
>>> measured("Cc1c(C#N)c(NC(=O)Cn2cnc3c2c(=O)n(C)c(=O)n3C)n(Cc2ccccc2)c1C")
"> 10 µM"

Please look up its IC50: COc1ccc(NC(=O)Cn2cnc3c2c(=O)n(C)c(=O)n3C)cc1Cl
≤ 10 µM

Please look up its IC50: Cn1c(=O)c2c(ncn2CC(=O)Nc2nc(-c3ccccc3)cs2)n(C)c1=O
≤ 10 µM

Please look up its IC50: Cn1c(=O)c2c(ncn2CC(=O)Nc2ccc(Br)cc2F)n(C)c1=O
≤ 5 µM

Please look up its IC50: Cn1c(=O)c2c(ncn2CC(=O)NCC(c2ccc(F)cc2)N2CCOCC2)n(C)c1=O (centres unmarked)
> 10 µM

Please look up its IC50: Cn1c(=O)c2c(ncn2CC(=O)Nc2ccc(Cl)c(C(F)(F)F)c2)n(C)c1=O
≤ 1 µM

----------
Biological target: hTRPA1 (Homo sapiens, UniProt O75762, K186N)
Construct: expressed in transfected cells; host or cells: HEK293/TREx (Invitrogen), induced with tetracycline
Experiment: High throughput Ca2+ fluorescence (Fluo4) assay, AITC stimulation
Format: cell-based
Conditions: Table 2; read-out: hTRPA1 Fluor IC50
Text: The assay depended on detection of the rise in intracellular Ca^2+ concentration ([Ca^2+]i) following channel activation in cells inducibly expressing the TRPA1 channel. Ca^2+ rise was quantified with the use of fluorescent Ca^2+ indicators that were loaded into cells and thereafter indicated the [Ca^2+]i. Ca^2+ influx followed activation of the TRPA1 channel. Compounds inhibiting the [Ca^2+]i rise were considered hits for further investigation. […]
Property: IC50

Study these solved cases before continuing.
>>> measured("Cn1c(=O)c2c(ncn2CC(=O)Nc2ccc(Oc3ccccc3)cc2)n(C)c1=O [Compound 262]")
"≤ 5 µM"
>>> measured("CN(C)c1ccc(NC(=O)Cn2cnc3c2c(=O)n(C)c(=O)n3C)cc1 [Compound 201]")
"≥ 20 µM"
>>> measured("Cn1c(=O)c2c(ncn2CC(=O)NCc2ccccn2)n(C)c1=O [Compound 243]")
"> 10 µM"
>>> measured("Cn1c(=O)c2c(ncn2CC(=O)Nc2ccc(C(N)=O)cc2)n(C)c1=O [Compound 212]")
"> 10 µM"
>>> measured("Cn1c(=O)c2c(ncn2CC(=O)Nc2ccccc2N2CCOCC2)n(C)c1=O [Compound 248]")
"> 10 µM"
>>> measured("Cc1cc([N+](=O)[O-])ccc1NC(=O)Cn1cnc2c1c(=O)n(C)c(=O)n2C [Compound 227]")
"≥ 30 µM"
>>> measured("CCC(C)(C)NC(=O)Cn1cnc2c1c(=O)n(C)c(=O)n2C [Compound 382]")
"> 10 µM"
>>> measured("CC(NC(=O)Cn1cnc2c1c(=O)n(C)c(=O)n2C)c1ccccc1 (centres unmarked) [Compound 220]")
"> 10 µM"

Please look up its IC50: Cn1c(=O)c2c(ncn2CC(=O)Nc2ccc(S(N)(=O)=O)cc2)n(C)c1=O [Compound 228]
> 10 µM

Please look up its IC50: Cn1c(=O)c2c(ncn2CC(=O)NCCc2ccc(Cl)cc2)n(C)c1=O [Compound 268]
> 10 µM

Please look up its IC50: COC(=O)C(CC(C)C)NC(=O)Cn1cnc2c1c(=O)n(C)c(=O)n2C (centres unmarked) [Compound 378]
> 10 µM

Please look up its IC50: CC(C)C(C)NC(=O)Cn1cnc2c1c(=O)n(C)c(=O)n2C (centres unmarked) [Compound 332]
> 10 µM

Please look up its IC50: Cn1c(=O)c2c(ncn2CC(=O)NCC(c2ccccc2)N2CCCC2)n(C)c1=O (centres unmarked) [Compound 321]
> 10 µM

Please look up its IC50: Cn1c(=O)c2c(ncn2CC(=O)NCc2ccccc2CN2CCOCC2)n(C)c1=O [Compound 337]
> 10 µM

Please look up its IC50: Cc1cc(C)c(NC(=O)Cn2cnc3c2c(=O)n(C)c(=O)n3C)c(Cl)c1 [Compound 330]
> 10 µM

Please look up its IC50: Cn1c(=O)c2c(ncn2CC(=O)NCCSCc2ccccc2)n(C)c1=O [Compound 329]
≤ 10 µM

Please look up its IC50: COc1ccc2nc(NC(=O)Cn3cnc4c3c(=O)n(C)c(=O)n4C)sc2c1 [Compound 234]
≤ 5 µM

Please look up its IC50: Cn1c(=O)c2c(ncn2CC(=O)Nc2ccc(Br)cc2)n(C)c1=O [Compound 219]
≤ 5 µM

Please look up its IC50: Cc1nc(-c2ccc(CCNC(=O)Cn3cnc4c3c(=O)n(C)c(=O)n4C)cc2)cs1 [Compound 353]
≤ 5 µM

Please look up its IC50: Cn1c(=O)c2c(ncn2CC(=O)N(Cc2ccccc2)CC(F)(F)F)n(C)c1=O [Compound 288]
> 10 µM

Please look up its IC50: CCOc1ccc(Oc2ccc(NC(=O)Cn3cnc4c3c(=O)n(C)c(=O)n4C)cc2)cc1 [Compound 284]
≤ 5 µM

Please look up its IC50: Cn1c(=O)c2c(ncn2CC(=O)Nc2ccc(F)cc2)n(C)c1=O [Compound 209]
≤ 10 µM

Please look up its IC50: COc1ccc(C)cc1NC(=O)Cn1cnc2c1c(=O)n(C)c(=O)n2C [Compound 373]
> 10 µM

Please look up its IC50: CC(C(=O)Nc1ccc(F)cc1)n1cnc2c1c(=O)n(C)c(=O)n2C (centres unmarked) [Compound 327]
> 10 µM

Please look up its IC50: CC(C(=O)Nc1ccccc1F)n1cnc2c1c(=O)n(C)c(=O)n2C (centres unmarked) [Compound 334]
> 10 µM

Please look up its IC50: Cn1c(=O)c2c(ncn2CC(=O)Nc2ccc(N3CCCCC3)cc2)n(C)c1=O [Compound 252]
≤ 5 µM

Please look up its IC50: CC(C)N(C(=O)Cn1cnc2c1c(=O)n(C)c(=O)n2C)c1ccccc1 [Compound 336]
> 10 µM

Please look up its IC50: CCCC(C)NC(=O)Cn1cnc2c1c(=O)n(C)c(=O)n2C (centres unmarked) [Compound 376]
> 10 µM

Please look up its IC50: COc1ccc(NC(=O)Cn2cnc3c2c(=O)n(C)c(=O)n3C)cc1 [Compound 207]
> 10 µM

Please look up its IC50: Cc1ccc(NC(=O)Cn2cnc3c2c(=O)n(C)c(=O)n3C)cc1 [Compound 259]
> 10 µM
